# measured_on: AKT1 E17K (Homo sapiens, UniProt P31749, E17K)
# Sequence (P31749 whole entry E17K): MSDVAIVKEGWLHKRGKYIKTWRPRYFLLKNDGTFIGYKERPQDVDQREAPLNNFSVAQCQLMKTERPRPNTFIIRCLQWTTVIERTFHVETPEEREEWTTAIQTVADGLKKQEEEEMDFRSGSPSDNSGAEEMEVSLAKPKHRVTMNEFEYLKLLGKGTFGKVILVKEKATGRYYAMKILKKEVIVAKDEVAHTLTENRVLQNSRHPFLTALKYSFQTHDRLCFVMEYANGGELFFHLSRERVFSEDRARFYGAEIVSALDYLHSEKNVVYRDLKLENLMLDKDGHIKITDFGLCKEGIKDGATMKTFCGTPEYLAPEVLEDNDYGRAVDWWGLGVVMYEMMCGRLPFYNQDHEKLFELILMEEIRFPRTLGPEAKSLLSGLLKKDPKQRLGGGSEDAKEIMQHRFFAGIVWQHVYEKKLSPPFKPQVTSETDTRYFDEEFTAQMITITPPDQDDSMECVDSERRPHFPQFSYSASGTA
# test_details: Live cell AKT1 E17K target engagement by NanoBRET competitive probe displacement
# condition_label: HEK293 cells transfected with kinase-NanoLuciferase fusion, 2 h at 37° C.
pIC50: −log10 of the molar value.
readout_type: pIC50

[
  {
    "compound": "C=CC(=O)N1CCC(N[C@@H]2c3ccc(-n4c(-c5ccccc5F)nc5ccc(-n6cccn6)nc54)cc3CC2F)CC1 (single isomer, unassigned) [Example 300]",
    "readout_type": "pIC50",
    "test_result": 8.04
  }
]

P. C=CC(=O)N1CC2(CCC(N[C@H]3CCc4cc(-n5c(-c6cccnc6N)nc6ccc(-n7cccn7)nc65)ccc43)C2)C1 (single isomer, unassigned) [Example 91]
Q. C=CC(=O)N1CCC(N[C@H]2CCc3cc(-n4c(-c5cccnc5N)nc5ccc(-n6cccn6)nc54)ccc32)c2ccccc21 (single isomer, unassigned) [Example 126]
R. C=CC(=O)N1CCC(N[C@@H]2c3ccc(-n4c(-c5cccnc5N)nc5ccc(-n6ccc(F)n6)nc54)cc3CC2F)C[C@@H]1C (single isomer, unassigned) [Example 270]
Q: Order the records, beginning with the lowest pIC50 and ending with the highest. A ranking is expressed here by listing the labels in the requested order.
Result: Q, P, R

###

# measured_on: AKT1 WT (Homo sapiens, UniProt P31749)
# Sequence (P31749 whole entry): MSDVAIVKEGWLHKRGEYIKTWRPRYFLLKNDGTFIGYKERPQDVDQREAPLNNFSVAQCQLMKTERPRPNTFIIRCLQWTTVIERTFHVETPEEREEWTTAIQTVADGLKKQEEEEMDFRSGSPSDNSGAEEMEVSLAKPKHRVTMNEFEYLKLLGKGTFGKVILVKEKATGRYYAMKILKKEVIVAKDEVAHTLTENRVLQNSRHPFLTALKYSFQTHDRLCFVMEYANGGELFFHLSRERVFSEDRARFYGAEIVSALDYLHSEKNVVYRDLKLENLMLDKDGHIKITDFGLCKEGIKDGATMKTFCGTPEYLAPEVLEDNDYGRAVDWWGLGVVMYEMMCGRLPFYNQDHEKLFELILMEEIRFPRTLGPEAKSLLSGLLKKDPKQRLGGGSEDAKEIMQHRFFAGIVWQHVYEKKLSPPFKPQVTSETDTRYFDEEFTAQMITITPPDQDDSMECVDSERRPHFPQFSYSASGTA
# test_details: Live cell AKT1 WT target engagement by NanoBRET competitive probe displacement
# condition_label: HEK293 cells transfected with kinase-NanoLuciferase fusion, 2 h at 37° C.
pIC50: −log10 of the molar value.
readout_type: pIC50

// worked examples, pIC50 included
[
  {
    "compound": "C=CC(=O)N1CCC(N[C@H]2CCc3cc(-n4c(-c5cccnc5N)nc5ccc(-n6ccc(OC)n6)nc54)ccc32)CC1",
    "measured_on": "AKT1 WT (Homo sapiens, UniProt P31749)",
    "pIC50": 7.09
  },
  {
    "compound": "C=CC(=O)N1CCC(N[C@H]2CCc3cc(-n4c(-c5cccnc5N)nc5ccc(-n6cccn6)nc54)ccc32)C1 (single isomer, unassigned) [Example 58]",
    "measured_on": "AKT1 WT (Homo sapiens, UniProt P31749)",
    "pIC50": 7.30
  },
  {
    "compound": "C=CC(=O)N1CCC(N[C@H]2CCc3cc(-n4c(-c5cccnc5N)nc5ccc(-n6cccn6)nc54)ccc32)C[C@@H]1COC (single isomer, unassigned) [Example 165]",
    "measured_on": "AKT1 WT (Homo sapiens, UniProt P31749)",
    "pIC50": 7.41
  },
  {
    "compound": "C=C(F)C(=O)Nc1cccc(C(=O)N[C@H]2CCc3cc(-n4c(-c5cccnc5N)nc5ccc(-n6cccn6)nc54)ccc32)c1",
    "measured_on": "AKT1 WT (Homo sapiens, UniProt P31749)",
    "pIC50": 8.15
  },
  {
    "compound": "C=CC(=O)N1CCC(CC2CCc3cc(-n4c(-c5cccnc5N)nc5ccc(-n6cccn6)nc54)ccc32)CC1 (single isomer, unassigned) [Example 344]",
    "measured_on": "AKT1 WT (Homo sapiens, UniProt P31749)",
    "pIC50": 6.38
  },
  {
    "compound": "C=CC(=O)N1CCC(N[C@H]2CCc3cc(-n4c(-c5cccnc5N)nc5ccc(-n6ccc(C7CC7)n6)nc54)ccc32)CC1",
    "measured_on": "AKT1 WT (Homo sapiens, UniProt P31749)",
    "pIC50": 7.11
  }
]

1. C=CC(=O)N1C[C@@H]2C[C@H]1CC2N[C@H]1CCc2cc(-n3c(-c4cccnc4N)nc4ccc(-n5cccn5)nc43)ccc21 (single isomer, unassigned) [Example 135]
2. C=CC(=O)N1C[C@@H]2[C@H](C1)[C@@H]2NC1CCc2cc(-n3c(-c4cccnc4N)nc4ccc(-n5cccn5)nc43)ccc21 (stereo partly drawn)
Q: Record comparison, field pIC50: mark the lower of 1 and 2 . Selection: enter the item's label.
Result: 2
(2: 6.57, 1: 7.65)
